A collection of compounds and their measured viability at 66 h
assay: in vitro; conditions: human, HepG2-A16-CD81EGFP cells, uninfected
REPORTED_PROPERTY: viability at 66 h

>>> measured_result("O=C(CC[S+](=O)([O-])c1cc(Br)cc2c1N(C(=O)C1CC1)CC2)Nc1ccc(C(F)(F)F)cc1")
"97.7%"
>>> measured_result("CCN1CCN(Cc2ccc(NC(=O)c3ccc(C)c(NC(=O)C(=O)c4c[nH]c5ccccc45)c3)cc2C(F)(F)F)CC1")
"106%"
>>> measured_result("O=C1c2ccccc2C(=O)c2[nH]c(=O)[nH]c21")
"95.7%"
>>> measured_result("O=C1Nc2ccccc2C1=NN=C(S)N1CCOCC1")
"86.1%"

====

test system: Plasmodium falciparum Dd2 asexual blood stage parasites; experiment: microbe, parasite or virus in culture; design: species or system Plasmodium falciparum Dd2 in human erythrocytes; single determination (one 11-point concentration-response curve); conditions: Plasmodium falciparum, DD2, Erythrocyte, 72 h; read-out: AC50
// returns f unless AC50 is strictly below 5 µM, in which case t

>>> label_value("CC(C)(Oc1nn(Cc2cccc(Cl)c2)c2ccccc12)C(=O)NCCN1CCOCC1")
"f"
>>> label_value("CCN(CC(O)c1cccc(O)c1)C(=O)C12CC3CC(CC(C3)C1)C2 (centres unmarked)")
"t"
>>> label_value("COc1cncc(Nc2cnc3ccc(-c4ccc(OC)c(OC)c4)nn23)c1")
"t"
>>> label_value("N#Cc1cc(C(=O)c2cc(Br)ccc2O)cn(C2CCCCC2)c1=O")
"t"
>>> label_value("CN(C)CCNCc1ccc(-c2ccccc2)o1")
"f"

====

assay: in vitro; settings: human, HepG2 cells; n = 1
REPORTED_PROPERTY: CC50 at 48 h (µM)

>>> measured_result("COCCN1Cc2ccc(NCC(C)C)nc2C(C)(C(=O)Nc2cccc(F)c2)C1 (centres unmarked) [NCGC00414615-01]")
35.3
>>> measured_result("Nc1nc(-c2ccccn2)nc(N)c1Cc1ccccc1F [MLS000691905-01]")
27.3
>>> measured_result("O=S(=O)(c1ccc(Cl)cc1)N1CCN(Cc2ccc(O)c3ncccc23)CC1 [MLS000774708-01]")
10.9
>>> measured_result("CCCCC(=O)NC(c1ccc(Cl)cc1Cl)c1ccc2cccnc2c1O (centres unmarked) [MLS001212967-01]")
21.7
>>> measured_result("Oc1c(CN2CCCC2)cc(COCc2ccccc2)c2cccnc12 [NCGC00183371-01]")
8.62
>>> measured_result("O=C(Nc1ncccc1O)c1ccc(NS(=O)(=O)c2ccc3[nH]c(=O)[nH]c3c2)cc1 [MLS001138628-01]")
21.7
>>> measured_result("CCOC(=O)c1ccc(Nc2nc3nonc3nc2Nc2cccc(C)c2C)cc1 [NCGC00117662-01]")
10.9
>>> measured_result("CC1=C[C@@H](CN2CCN(c3ccccn3)CC2)[C@H](C(C)C)C[C@H]1Cc1nnc(C)o1 [NCGC00392770-01]")
35.3

====

Each record here notes measured viability at 66 h.
assay: in vitro; details: human
REPORTED_PROPERTY: viability at 66 h (%)

>>> measured_result("CCOC(=O)c1cnc2c(C)cc(C)cc2c1O [MLS000530578-01]")
104
>>> measured_result("c1ccc(-c2cccc(-c3ccccn3)n2)nc1 [MLS000048666-01]")
17.7
>>> measured_result("CCN1CC=C(c2c[nH]c3ccccc23)CC1 [MLS000093713-01]")
103
>>> measured_result("Oc1ccc(C2NCc3ccccc3-n3cccc32)cc1Cl (stereo not shown) [MLS000878874-01]")
108
>>> measured_result("C=CC1CN2CCC1CC2C(OC(C)=O)c1ccnc2ccc(OC)cc12 (stereo not shown) [MLS000851200-01]")
99.9
>>> measured_result("CN1C2CCC1/C(=C\\c1ccccc1)C(=O)/C2=C\\c1ccccc1 [MLS000551165-01]")
95.8
>>> measured_result("CC(C)CCNC(=O)c1cc(C(=O)c2cc(Br)ccc2O)cn(CCC(C)C)c1=O [MLS000775608-01]")
105
